biological target: EGFR Del19/T790M/C797S (Homo sapiens, UniProt P00533, C797S/DEL746-750/T790M); assay: Biochemical EGFR kinase inhibition assay (Lance Ultra TR-FRET), triple mutant del19/T790M/C797S; conditions: IC50 Del19/T790M/C797S (nM), 100 μM ATP
Sequence (P00533 with tags, fused parts or gaps DEL746-750/T790M/C797S): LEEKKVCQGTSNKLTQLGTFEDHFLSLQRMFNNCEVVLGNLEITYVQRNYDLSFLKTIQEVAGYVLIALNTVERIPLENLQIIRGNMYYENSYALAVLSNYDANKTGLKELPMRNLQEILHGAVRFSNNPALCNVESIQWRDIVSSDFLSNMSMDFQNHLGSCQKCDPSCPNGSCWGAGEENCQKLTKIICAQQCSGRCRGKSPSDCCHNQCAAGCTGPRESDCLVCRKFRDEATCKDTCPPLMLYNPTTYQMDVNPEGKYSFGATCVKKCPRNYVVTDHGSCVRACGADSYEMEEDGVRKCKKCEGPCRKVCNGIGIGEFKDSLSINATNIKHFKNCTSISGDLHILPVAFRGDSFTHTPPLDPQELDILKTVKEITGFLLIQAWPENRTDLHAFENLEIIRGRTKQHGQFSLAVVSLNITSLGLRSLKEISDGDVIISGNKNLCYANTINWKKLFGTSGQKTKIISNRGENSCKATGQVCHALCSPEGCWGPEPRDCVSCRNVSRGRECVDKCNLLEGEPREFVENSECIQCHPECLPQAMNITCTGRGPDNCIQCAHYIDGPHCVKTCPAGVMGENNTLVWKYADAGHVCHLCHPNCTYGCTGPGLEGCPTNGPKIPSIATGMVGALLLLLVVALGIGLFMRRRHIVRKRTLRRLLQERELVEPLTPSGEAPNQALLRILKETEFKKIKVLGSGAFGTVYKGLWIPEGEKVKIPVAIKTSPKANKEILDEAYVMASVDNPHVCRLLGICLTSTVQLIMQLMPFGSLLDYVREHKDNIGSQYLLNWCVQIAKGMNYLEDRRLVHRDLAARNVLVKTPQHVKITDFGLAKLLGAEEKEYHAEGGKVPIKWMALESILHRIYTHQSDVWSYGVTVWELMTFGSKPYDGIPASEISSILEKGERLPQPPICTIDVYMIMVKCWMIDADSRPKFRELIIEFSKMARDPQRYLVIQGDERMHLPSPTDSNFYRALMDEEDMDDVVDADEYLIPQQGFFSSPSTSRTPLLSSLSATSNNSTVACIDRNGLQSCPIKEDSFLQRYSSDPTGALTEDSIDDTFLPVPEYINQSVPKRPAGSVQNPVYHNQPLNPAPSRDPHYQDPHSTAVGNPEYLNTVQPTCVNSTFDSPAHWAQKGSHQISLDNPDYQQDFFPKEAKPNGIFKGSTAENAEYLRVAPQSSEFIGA
With a cut-off of 1 nM, any IC50 strictly below it is called Satisfied; any IC50 meeting it or above is called Not satisfied.

**Query** Please state whether IC50 is below 1 nM for CC1(C#Cc2cnc(Nc3ccnc(-c4cnn(S(=O)(=O)C5CC5)c4)n3)cc2NC[C@H]2CC[C@H](O)CC2)CC1 [Example 403]
**Result** Not satisfied

**Query** Please state whether IC50 is below 1 nM for CN1CCC2(CC1)CCN(c1cc(Nc3ccnc(-c4cnn(S(=O)(=O)C5CC5)c4)n3)ncc1C#Cc1cnn(C3CC3)c1)CC2 [Example 319]
**Result** Satisfied

**Query** Please state whether IC50 is below 1 nM for CC1(C#Cc2cnc(Nc3ccnc(-c4cnn(S(=O)(=O)C5CC5)c4)n3)cc2NC[C@H]2CC[C@H](CO)CC2)CC1 [Example 405]
**Result** Not satisfied

**Query** Please state whether IC50 is below 1 nM for C[C@]1(O)CC[C@@H](Nc2cc(Nc3ccnc(-c4cnn(S(=O)(=O)C5CC5)c4)n3)ncc2C#Cc2cnn(CC(F)F)c2)CC1 [Example 323]
**Result** Satisfied

**Query** Please state whether IC50 is below 1 nM for CC1(O)CCC(Nc2cc(Nc3ccnc(-c4cnn(S(=O)(=O)C5CC5)c4)n3)ncc2C#Cc2cnn(C3CC3(F)F)c2)CC1 (stereo not drawn) [Example 326]
**Result** Not satisfied

**Query** Please state whether IC50 is below 1 nM for CN(C)CC1(C)CCN(c2cc(Nc3ccnc(-c4cnn(S(=O)(=O)C5CC5)c4)n3)ncc2C#CC2CCO[C@H]2C(F)(F)F)CC1 (stereo partly drawn) [Example 418]
**Result** Not satisfied

* * *

target: EGFR wildtype (WT) (Homo sapiens); assay: Biochemical EGFR kinase inhibition assay (Lance Ultra TR-FRET), wildtype; details: ATP at Km; read-out: IC50 WT (nM), Km ATP
Sequence (P00533 25-1210): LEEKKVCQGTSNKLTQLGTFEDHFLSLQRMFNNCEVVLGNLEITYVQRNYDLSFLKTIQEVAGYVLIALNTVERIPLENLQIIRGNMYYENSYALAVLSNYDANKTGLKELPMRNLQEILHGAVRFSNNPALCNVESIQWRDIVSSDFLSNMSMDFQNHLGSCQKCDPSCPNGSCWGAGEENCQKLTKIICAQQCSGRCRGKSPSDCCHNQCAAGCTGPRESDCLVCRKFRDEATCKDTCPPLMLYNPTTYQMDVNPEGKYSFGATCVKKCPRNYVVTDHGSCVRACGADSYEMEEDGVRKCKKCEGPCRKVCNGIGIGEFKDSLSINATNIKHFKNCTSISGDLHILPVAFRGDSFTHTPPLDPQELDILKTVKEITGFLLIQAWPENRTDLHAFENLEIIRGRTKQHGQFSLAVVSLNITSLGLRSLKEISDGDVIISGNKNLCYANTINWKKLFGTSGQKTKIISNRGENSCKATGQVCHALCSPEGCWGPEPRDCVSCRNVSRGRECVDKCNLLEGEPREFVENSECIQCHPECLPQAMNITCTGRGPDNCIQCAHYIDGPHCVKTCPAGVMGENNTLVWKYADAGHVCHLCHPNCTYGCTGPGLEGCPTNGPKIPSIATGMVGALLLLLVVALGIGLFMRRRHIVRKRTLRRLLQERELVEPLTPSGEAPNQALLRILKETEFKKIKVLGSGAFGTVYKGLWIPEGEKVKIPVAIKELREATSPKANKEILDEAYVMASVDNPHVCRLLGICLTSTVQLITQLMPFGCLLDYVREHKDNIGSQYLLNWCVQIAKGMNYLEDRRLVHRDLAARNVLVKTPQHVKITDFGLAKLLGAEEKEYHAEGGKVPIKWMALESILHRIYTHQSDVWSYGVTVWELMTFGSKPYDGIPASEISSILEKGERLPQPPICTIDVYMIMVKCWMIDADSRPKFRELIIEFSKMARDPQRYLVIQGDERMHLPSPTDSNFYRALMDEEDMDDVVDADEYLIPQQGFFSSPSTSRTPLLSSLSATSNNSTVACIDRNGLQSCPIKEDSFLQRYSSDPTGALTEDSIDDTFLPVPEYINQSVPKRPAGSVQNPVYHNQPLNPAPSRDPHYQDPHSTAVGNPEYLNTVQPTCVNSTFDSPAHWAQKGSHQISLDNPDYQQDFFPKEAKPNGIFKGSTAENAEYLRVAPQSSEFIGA
With a cut-off of 50 nM, any IC50 strictly below it is called class 1; any IC50 meeting it or above is called class 0.

**Query** Please state whether IC50 is below 50 nM for Nc1cccc(C#Cc2cnc(Nc3ccnc(-c4cnn(S(=O)(=O)C5CC5)c4)n3)cc2N[C@@H]2CCC[C@H](O)C2)c1
**Result** class 0

**Query** Please state whether IC50 is below 50 nM for O=S(=O)(C1CC1)n1cc(-c2nccc(Nc3cc(N4CCC5(CCO5)CC4)c(C#Cc4cccnc4)cn3)n2)cn1
**Result** class 1

**Query** Please state whether IC50 is below 50 nM for C[C@]1(O)CC[C@@H](Nc2cc(Nc3ccnc(-c4cnn(S(=O)(=O)C5CC5)c4)n3)ncc2C#Cc2ccc(CN3CCOCC3)cc2)CC1
**Result** class 0

**Query** Please state whether IC50 is below 50 nM for C[C@]1(O)CC[C@@H](Nc2cc(Nc3ccnc(-c4cnn(S(=O)(=O)C5CC5)c4)n3)ncc2C#CCN2CCOCC2)CC1
**Result** class 0

**Query** Please state whether IC50 is below 50 nM for Cn1cc(C#Cc2cnc(Nc3ccnc(-c4cnn(S(=O)(=O)C5CC5)c4)n3)cc2N2CCC3(CCNC3)CC2)cn1
**Result** class 1

**Query** Please state whether IC50 is below 50 nM for CN(C)CC1CCN(c2cc(Nc3ccnc(-c4cnn(S(=O)(=O)C5CC5)c4)n3)ncc2C#Cc2cnn(CC(F)F)c2)CC1
**Result** class 1

**Query** Please state whether IC50 is below 50 nM for O=S(=O)(C1CC1)n1cc(-c2nccc(Nc3cc(N[C@H]4CCC[C@H](O)C4)c(C#Cc4ccc(CN5CCOCC5)cc4)cn3)n2)cn1
**Result** class 0

**Query** Please state whether IC50 is below 50 nM for O=S(=O)(C1CC1)n1cc(-c2nccc(Nc3cc(N[C@H]4CC[C@@H](O)CC4)c(C#Cc4ccc(CN5CCOCC5)s4)cn3)n2)cn1
**Result** class 1

**Query** Please state whether IC50 is below 50 nM for CC1(CO)CCN(c2cc(Nc3ccnc(-c4cnn(S(=O)(=O)C5CC5)c4)n3)ncc2C#Cc2ccc(CN3CCOCC3)cc2)CC1
**Result** class 1

**Query** Please state whether IC50 is below 50 nM for O=S(=O)(C1CC1)n1cc(-c2nccc(Nc3cc(N4CCC(C5(O)CC5)CC4)c(C#Cc4cnn(C(F)(F)F)c4)cn3)n2)cn1
**Result** class 0

**Query** Please state whether IC50 is below 50 nM for CC(C)(O)[C@H]1CC[C@@H](Nc2cc(Nc3ccnc(-c4cnn(S(=O)(=O)C5CC5)c4)n3)ncc2C#Cc2ccc(CN3CCOCC3)cc2)CC1
**Result** class 0

**Query** Please state whether IC50 is below 50 nM for CN(C)C[C@H]1CC[C@@H](Nc2cc(Nc3ccnc(-c4cnn(S(=O)(=O)C5CC5)c4)n3)ncc2C#Cc2cnn(C(F)(F)F)c2)CC1
**Result** class 0

**Query** Please state whether IC50 is below 50 nM for CC(O)C1CCN(c2cc(Nc3ccnc(-c4cnn(S(=O)(=O)C5CC5)c4)n3)ncc2C#Cc2cnn(C(F)(F)F)c2)CC1 (stereo not shown)
**Result** class 0

* * *

molecular target: EGFR Del19/C797S (Homo sapiens, UniProt P00533, C797S/DEL746-750); test: Biochemical EGFR kinase inhibition assay (Lance Ultra TR-FRET), double mutant del19/C797S; conditions: Km ATP; read-out: IC50 Del19/C797S (nM) Km ATP
Sequence (P00533 with tags, fused parts or gaps DEL746-750/C797S): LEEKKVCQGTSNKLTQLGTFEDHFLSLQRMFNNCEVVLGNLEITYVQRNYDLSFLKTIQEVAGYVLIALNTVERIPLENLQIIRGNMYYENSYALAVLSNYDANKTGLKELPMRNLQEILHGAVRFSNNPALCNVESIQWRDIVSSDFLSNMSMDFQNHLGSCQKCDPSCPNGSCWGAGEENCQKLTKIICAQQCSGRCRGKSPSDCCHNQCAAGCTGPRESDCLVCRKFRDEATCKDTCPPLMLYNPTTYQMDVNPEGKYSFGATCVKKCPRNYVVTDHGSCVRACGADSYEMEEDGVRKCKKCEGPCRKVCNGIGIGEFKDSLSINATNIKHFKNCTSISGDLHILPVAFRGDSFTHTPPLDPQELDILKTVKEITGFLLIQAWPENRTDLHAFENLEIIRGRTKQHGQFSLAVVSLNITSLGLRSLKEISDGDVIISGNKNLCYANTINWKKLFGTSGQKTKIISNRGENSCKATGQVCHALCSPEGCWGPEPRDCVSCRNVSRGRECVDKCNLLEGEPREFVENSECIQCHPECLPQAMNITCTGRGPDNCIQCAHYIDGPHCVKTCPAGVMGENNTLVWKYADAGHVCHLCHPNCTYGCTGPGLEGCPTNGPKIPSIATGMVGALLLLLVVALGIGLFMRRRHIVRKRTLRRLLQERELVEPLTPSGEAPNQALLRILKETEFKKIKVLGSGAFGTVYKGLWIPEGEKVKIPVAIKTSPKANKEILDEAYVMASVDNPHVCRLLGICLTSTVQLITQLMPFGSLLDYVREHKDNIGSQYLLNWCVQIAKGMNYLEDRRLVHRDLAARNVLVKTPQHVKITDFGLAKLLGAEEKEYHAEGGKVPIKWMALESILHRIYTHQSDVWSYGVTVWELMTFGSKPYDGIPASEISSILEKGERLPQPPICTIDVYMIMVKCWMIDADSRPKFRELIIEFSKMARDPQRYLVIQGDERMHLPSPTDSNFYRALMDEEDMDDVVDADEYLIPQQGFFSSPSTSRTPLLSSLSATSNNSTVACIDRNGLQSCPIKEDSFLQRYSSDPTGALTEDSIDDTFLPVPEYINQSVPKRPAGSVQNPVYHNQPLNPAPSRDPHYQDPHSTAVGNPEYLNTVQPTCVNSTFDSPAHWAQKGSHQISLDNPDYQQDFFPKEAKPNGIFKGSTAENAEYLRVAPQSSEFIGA
outcomeMeasure: IC50 (nM)
Hi! Could you send only the number? It should be in nM, unit omitted.

Input CC1(O)CC2(CCN(c3cc(Nc4ccnc(-c5cnn(S(=O)(=O)C6CC6)c5)n4)ncc3C#Cc3cnn(C(F)(F)F)c3)CC2)C1 . Output IC50: 9.7

Input CN(C)Cc1ccc(CNc2cc(Nc3ccnc(-c4cnn(S(=O)(=O)C5CC5)c4)n3)ncc2C#Cc2cnn(CC(F)F)c2)cc1 . Output IC50: 76.9

Input CN(C)CCCn1cc(C#Cc2cnc(Nc3ccnc(-c4cnn(S(=O)(=O)C5CC5)c4)n3)cc2N2CCC(C)(CO)CC2)cn1 . Output IC50: 0.5

Input CC(C)Nc1cc(Nc2ccnc(-c3cnn(S(=O)(=O)C4CC4)c3)n2)ncc1C#Cc1cccnc1 . Output IC50: 34.3

Input CN(C)C(=O)Cn1cc(C#Cc2cnc(Nc3ccnc(-c4cnn(S(=O)(=O)C5CC5)c4)n3)cc2N[C@H]2CC[C@@](C)(O)CC2)cn1 . Output IC50: 6.3

Input CN(C)CCn1cc(C#Cc2cnc(Nc3ccnc(-c4cnn(S(=O)(=O)C5CC5)c4)n3)cc2N2CCCC(CO)C2)cn1 (stereo not shown) . Output IC50: 0.7

Input COC1CCN(c2cc(Nc3ccnc(-c4cnn(S(=O)(=O)C5CC5)c4)n3)ncc2C#Cc2cnn(C3CCN(C(C)=O)CC3)c2)CC1 . Output IC50: 3.2

Input CN(C)CCCn1cc(C#Cc2cnc(Nc3ccnc(-c4cnn(S(=O)(=O)C5CC5)c4)n3)cc2N[C@H]2CC[C@@H](O)CC2)cn1 . Output IC50: 0.3

Input CC1(CO)CCN(c2cc(Nc3ccnc(-c4cnn(S(=O)(=O)C5CC5)c4)n3)ncc2C#Cc2cnn(C(F)(F)F)c2)CC1 . Output IC50: 4.3

Input CN(C)C[C@H]1CC[C@H](COc2cc(Nc3ccnc(-c4cnn(S(=O)(=O)C5CC5)c4)n3)ncc2C#Cc2cnn(C)c2)CC1 . Output IC50: 0.6

Input O=S(=O)(C1CC1)n1cc(-c2nccc(Nc3cc(N[C@H]4CC[C@@H](O)CC4)c(C#Cc4cnn(C5CCOCC5)c4)cn3)n2)cn1 . Output IC50: 6.7

Input O=C1CCN(c2cc(Nc3ccnc(-c4cnn(S(=O)(=O)C5CC5)c4)n3)ncc2C#Cc2cnn(C3CCOCC3)c2)CC1 . Output IC50: 43

Input Cn1cc(C#Cc2cnc(Nc3ccnc(-c4cnn(S(=O)(=O)C5CC5)c4)n3)cc2NC2CCCCC2)cn1 . Output IC50: 112

* * *

target: UniProtKB P00533; test: Biochemical EGFR kinase inhibition assay (Lance Ultra TR-FRET), wildtype; details: Km ATP; read-out: IC50 WT (nM) Km ATP
outcomeMeasure: IC50 (nM)
Hi! Could you send only the number? It should be in nM, unit omitted.

Recorded IC50 for CN(C)CCn1cc(C#Cc2cnc(Nc3ccnc(-c4cnn(S(=O)(=O)C5CC5)c4)n3)cc2N2CCC(NCCF)CC2)cn1 on UniProtKB P00533 was 23.8

Recorded IC50 for CCS(=O)(=O)N1CCN(c2cc(Nc3ccnc(-c4cnn(S(=O)(=O)C5CC5)c4)n3)ncc2C#Cc2cnn(C)c2)CC1 on UniProtKB P00533 was 3830

Recorded IC50 for CC(C)Nc1cc(Nc2ccnc(-c3cnn(S(=O)(=O)C4CC4)c3)n2)ncc1C#Cc1cccnc1 on UniProtKB P00533 was 374

Recorded IC50 for O=S(=O)(C1CC1)n1cc(-c2nccc(Nc3cc(-c4cnn(C5CC5)c4)c(C#Cc4cnn(CCF)c4)cn3)n2)cn1 on UniProtKB P00533 was 2720

Recorded IC50 for CC1(CO)CCN(c2cc(Nc3ccnc(-c4cnn(S(=O)(=O)C5CC5)c4)n3)ncc2C#Cc2cnn(CC3CCOCC3)c2)CC1 on UniProtKB P00533 was 6.1

Recorded IC50 for CC1(CO)CCN(c2cc(Nc3ccnc(-c4cnn(S(=O)(=O)C5CC5)c4)n3)ncc2C#Cc2cnn(C3CCOCC3)c2)CC1 on UniProtKB P00533 was 5

Recorded IC50 for O=S(=O)(C1CC1)n1cc(-c2nccc(Nc3cc(N4CCC(F)(CO)CC4)c(C#Cc4cnn(C5CCOCC5)c4)cn3)n2)cn1 on UniProtKB P00533 was 12.8

Recorded IC50 for Cn1cc(C#Cc2cnc(Nc3ccnc(-c4cnn(S(=O)(=O)C5CC5)c4)n3)cc2N2CCC(C)(CO)CC2)cn1 on UniProtKB P00533 was 6

Recorded IC50 for CN(CCO)c1cc(Nc2ccnc(-c3cnn(S(=O)(=O)C4CC4)c3)n2)ncc1C#Cc1cnn(C)c1 on UniProtKB P00533 was 435

Recorded IC50 for Cn1ccc(C#Cc2cnc(Nc3ccnc(-c4cnn(S(=O)(=O)C5CC5)c4)n3)cc2N2CCC(C)(CO)CC2)n1 on UniProtKB P00533 was 24.1

Recorded IC50 for CC(=O)N1CCC(n2cc(C#Cc3cnc(Nc4ccnc(-c5cnn(S(=O)(=O)C6CC6)c5)n4)cc3N3CCC(C)(CO)CC3)cn2)CC1 on UniProtKB P00533 was 2.8

Recorded IC50 for O=S(=O)(C1CC1)n1cc(-c2nccc(Nc3cc(N4CCC(NCCO)CC4)c(C#Cc4cnn(C5CCOCC5)c4)cn3)n2)cn1 on UniProtKB P00533 was 174

Recorded IC50 for Cn1cc(C#Cc2cnc(Nc3ccnc(-c4cnn(S(=O)(=O)C5CC5)c4)n3)cc2-c2cnn(C3CC3)c2)cn1 on UniProtKB P00533 was 2220

Recorded IC50 for CN(C)C(=O)Cn1cc(C#Cc2cnc(Nc3ccnc(-c4cnn(S(=O)(=O)C5CC5)c4)n3)cc2N[C@H]2CC[C@@](C)(O)CC2)cn1 on UniProtKB P00533 was 65

Ref: patent US11981658B2
